For each of the variants below, state its self-cleavage.
B1: OR4K15 (parent)
chain: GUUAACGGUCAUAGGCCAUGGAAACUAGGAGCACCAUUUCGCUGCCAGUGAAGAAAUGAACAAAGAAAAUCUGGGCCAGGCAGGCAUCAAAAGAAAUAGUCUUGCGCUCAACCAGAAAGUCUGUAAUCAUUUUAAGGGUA

# Variants of: B1
# experimentalProtocol: self-cleavage, relative activity (ratio to wild type); higher = more cleavage; in vitro, sequencing; the parent is a self-cleaving ribozyme
I'd appreciate a reply containing only the number, no unit.

Query self-cleavage for GUUAACGGUCAUAGGCCAUGGAGACUAGGAGCACCAUUUCGCUGCCAGUGAAGAAAUGAACAAAGAAAAUCUGGGCCAGGCAGGCACCAAAAGAAAUAGUCUUGCGCUCAACCAGAAAGUCUGUAAUCAUUUUAAGGGUA [A23G U87C]
0.61

Specify reported self-cleavage for the variant shown: GUUAACGGUCAUAGGCCAUGGAAACUAGGAGCACCAUUUCGCUGCCAGUGAAGAAAUGAACAAAGAAAAUCUGGGCCAGGCUGGCAUCAAAAGUAAUAGUCUUGCGCUCAACCAGAAAGUCUGUAAUCAUUUUAAGGGUA [A82U A94U]
0.21

Determine from records and report self-cleavage for GUUAACGGUCAUAGGCCAUGGAAACUAGGAGCACCAUUUCGCUGCCAGUGAAGAAAUGAACAAAGAAAAUCUGGGCCAGGCAGGCAUCAAAAGAAAUAGUCUUGCGCUCAACCAGAAAAUCCGUAAUCAUUUUAAGGGUA [G119A U122C]
1.11

Output measured self-cleavage for this item: GUUAACGGUCAUAGGCCAUGGAAACUAGGAGCACCAUUUCGCUGCCAGUGAAGAAAUGAACAAAGAGAAUCUGGGCCAGGCAGGCAUCAGAAGAAAUAGUCUUGCGCUCAACCAGAAAGUCUGUAAUCAUUUUAAGGGUA [A67G A90G]
0.96

Supply measured self-cleavage of GUUAACGGUCAUAGGCCAUGGAAACUAGGAGCACCAUUUCGCUGCCAGUGAAGAAAUGAACAAAGAAAAUCUGGGCCAGGCCGGCAUCAAAAGAAAUAGUCUUGCGCUCAACCAGAAAGUCUGUAAUCAUUUUGAGGGUA [A82C A134G] in your reply.
0.17

Respond only with self-cleavage recorded for GUUAUCGGUCAUAGGCCAUGGAAACUAGGAGCACCAUUUCGCUGCCAGUGAAGAAAUGAACAAAGAAAAUCUGGGCCAGGCAGGCAUCAAUAGAAAUAGUCUUGCGCUCAACCAGAAAGUCUGUAAUCAUUUUAAGGGUA [A5U A91U]
1.64

Tell me measured self-cleavage for GUUAACGGUCAUAGGCCAUGGAAACUAGGAGCACCAUUUCGCUGCCAGCGAAGAAAUGAACAAAGAAAAUCUGGGUCAGGCAGGCAUCAAAAGAAAUAGUCUUGCGCUCAACCAGAAAGUCUGUAAUCAUUUUAAGGGUA [U49C C76U] please.
0.07

In one line, give reported self-cleavage of the entry GUUAUCGGUCAUAGGCCAUGGAAACUAGGAGCACCAUCUCGCUGCCAGUGAAGAAAUGAACAAAGAAAAUCUGGGCCAGGCAGGCAUCAAAAGAAAUAGUCUUGCGCUCAACCAGAAAGUCUGUAAUCAUUUUAAGGGUA [A5U U38C] .
1.27

Give me measured self-cleavage, please, for this variant: GUUAACGGUCGUAGGCCAUGGAAACUAGGAGCACCAUUUCGCUGCCAGUGAAGAAAUGAACAAAGAAAAUCUGGGCCAGGCAGGCAUCAAAAGAAAUAGUCUUGCGCUCAACCAGAAUGUCUGUAAUCAUUUUAAGGGUA [A11G A118U]
0.2

Specify measured self-cleavage for GUUAACGGUCAUAGGCCAUGGAAACUAGGAGCACCAUUUCGCUGCCAGUGAAGAAAUGAACAUAGAAAAUCUGGGCCAGGCAGGCAUCAAAAGAAACAGUCUUGCGCUCAACCAGAAAGUCUGUAAUCAUUUUAAGGGUA [A63U U97C] .
1.05

Provide one value: measured self-cleavage of GUUAACGGUCAUAGGCCAUGGAAACUAGGAGCACCAUUUCGCUGCCAGUGAAGAAAUGGACAAAGAAAAUCUGGGCCAGGCAGGCAUCUAAAGAAAUAGUCUUGCGCUCAACCAGAAAGUCUGUAAUCAUUUUAAGGGUA [A59G A89U]
0.98

Return self-cleavage for the following variant: GUUAACGGUCAUAGGCCAUGGAAACUAGGAGCACCAUUUCGCUGCCAGUGAAGAAAUGAACAAAGAAAAUCUGGGACAGGCAGGCAUCAAAAGAAAUAGUCUUGCGCUCAACCAGAAAGUCUGUAAUCAUUUUAAGGGUA [C76A]
0.1

Quickly give me recorded self-cleavage for GUUAACGGUCAUAGGCCAUGGAAACUAGGAGCACCAUUUCGCUGCCAGCGAAGAAAUGAACGAAGAAAAUCUGGGCCAGGCAGGCAUCAAAAGAAAUAGUCUUGCGCUCAACCAGAAAGUCUGUAAUCAUUUUAAGGGUA [U49C A62G]
1.57

Give self-cleavage for the following variant: GUUAACGGUCAUAGGCCAUGGAAACUAGGAGCACCAUUUCGCUGCCAGUGAAGAAAUGAACAAAGAAAAUCUGGGCCCGGCAGGCACCAAAAGAAAUAGUCUUGCGCUCAACCAGAAAGUCUGUAAUCAUUUUAAGGGUA [A78C U87C]
0.27

// Input: GUUAACGGUCAUAGGCCAUGGAAACUAGGAGCACCAUUUCGCUGCCAGUGAAGAAAUGAACAAAGAGAAUCUGGGCCAGGCAGGCAUCAAAAGAAAUAGUCUUGCGCUCAACCAGUAAGUCUGUAAUCAUUUUAAGGGUA [A67G A116U] . Output its self-cleavage only.
0.14

Provide self-cleavage value for the following variant: GUUAGCGGUCAUAGGCCAUGGAAACCAGGAGCACCAUUUCGCUGCCAGUGAAGAAAUGAACAAAGAAAAUCUGGGCCAGGCAGGCAUCAAAAGAAAUAGUCUUGCGCUCAACCAGAAAGUCUGUAAUCAUUUUAAGGGUA [A5G U26C]
0.6

Give reported self-cleavage value for GUUAACGGUCAUAGGCCAUGGAAACUAGGAGCACCAUUUCGCUGCCAGUGAAGAAAUGAACAAAGAAAAUCCGGGCCAGGCAGGCAUCAAAAGAAAUAGUCUUGCGCUCAACCGGAAAGUCUGUAAUCAUUUUAAGGGUA [U72C A114G]
2.31

Give self-cleavage for the following variant: GUUAACGGUCAUAGGCCAUGGAAACUAGGUGCACCAUUUCGCUGCCAGUGAAGAAAUGGACAAAGAAAAUCUGGGCCAGGCAGGCAUCAAAAGAAAUAGUCUUGCGCUCAACCAGAAAGUCUGUAAUCAUUUUAAGGGUA [A30U A59G]
0.34

Report self-cleavage, nothing else, for this variant: GUUAACGGUCAUAGGCCAUGGAAACUAGGAGCACCAUUUCGCCGCCAGUGAAGAAAUGAACAAAGAAAAUAUGGGCCAGGCAGGCAUCAAAAGAAAUAGUCUUGCGCUCAACCAGAAAGUCUGUAAUCAUUUUAAGGGUA [U43C C71A]
0.32

Given GUUAACGGUCAUAGGCCAUGGAGACUAGGAGCACCAUUUCGCUGCCAGUGAAGAAAUGAACAAAGAAAAUCUGGGCCAGGCAGGCAUCAAAAGAAAUAGUCUUGCGCUCAACCAGAAAGUCUGUAGUCAUUUUAAGGGUA [A23G A126G] , respond with its self-cleavage.
0.76

Supply recorded self-cleavage for GCUAACGGUCAUAGGCCAUGGAAACUAGGAGCACCAUUUCGCUGCCAGUGAAGAAAUGAACAAAGAAAAACUGGGCCAGGCAGGCAUCAAAAGAAAUAGUCUUGCGCUCAACCAGAAAGUCUGUAAUCAUUUUAAGGGUA [U2C U70A] here.
0.71

Recall and state the measured self-cleavage for GUUAACGGUCAUAGGCCAUGGAAACUAGGAGCACCAUUUCGCUGCCAGUGAAGAAAUGAACAAAGAAAAUCUGGGCCAGGCAGGCAUCAAAAGAAAUAGUCUUGCGCGCAACCAGAAAGUCCGUAAUCAUUUUAAGGGUA [U108G U122C] .
0.02

Quote self-cleavage reported for GAUAACGGUCAUAGGCCAUGGAAACUAGGAGCACCAUUUCGCUGCCAGUGAAGAAAUGAACAAAGAAAAUCUGGGCCAGGCAGGCAUCAAAAGAAAUAGUCUUGCGCUCAACCAGAAAGUCCGUAAUCAUUUUAAGGGUA [U2A U122C] please.
0.72

Determine from records and report self-cleavage for GUUAAAGGUCAUAGGCCAUGGAAACUAGGAGCACCAUUUCGCUGCCAGUGAAGAAAUGAACAAAGGAAAUCUGGGCCAGGCAGGCAUCAAAAGAAAUAGUCUUGCGCUCAACCAGAAAGUCUGUAAUCAUUUUAAGGGUA [C6A A66G]
1.23

Fill in reported self-cleavage for this entry: GUUAACGGUCAUAGGCCAUGGAAACUAGGAGCACCAUUUCGCUGCCAGUGAAGAAAUGAACAAAGAAAAUCUGGGCCAGGCAGGCAUCAGAAGAAAUAGUCUUGCGCUCAACCAGAAAGUCUGUAAUCAUUUUAAGGUUA [A90G G138U]
1.3

Specify self-cleavage for GAUAACGGUCAUAGGCCAUGGAAACUAGGAGCACCAUUUCGCUGCCGGUGAAGAAAUGAACAAAGAAAAUCUGGGCCAGGCAGGCAUCAAAAGAAAUAGUCUUGCGCUCAACCAGAAAGUCUGUAAUCAUUUUAAGGGUA [U2A A47G] and stop.
1.42

Let me know recorded self-cleavage for GUUAACGGUCAUAGGCCAUGGAAACUAGGAGCACCAUUUCGCUGCCAGUGAAGGAAUGAACAAAGAAAAUCUGGGCCAGGCAGGCAUCUAAAGAAAUAGUCUUGCGCUCAACCAGAAAGUCUGUAAUCAUUUUAAGGGUA [A54G A89U] , thanks.
1.61

Please report self-cleavage for the following variant: GUUAACGGUCAUAGGCCAUGGAAACUAGGAGCACCAUUUCGCUGCCAGUGAAGGAAUGAACAAAGAAAAUCUGGGCCAGGCAGGCAUCAAAAGAAAUAGUCUUGCGCUCAAGCAGAAAGUCUGUAAUCAUUUUAAGGGUA [A54G C112G]
0.01
